From: paper PMC8651256

# Study Target: human serum albumin (HSA) (Homo sapiens, UniProt P02768)
# Sequence (P02768 25-609): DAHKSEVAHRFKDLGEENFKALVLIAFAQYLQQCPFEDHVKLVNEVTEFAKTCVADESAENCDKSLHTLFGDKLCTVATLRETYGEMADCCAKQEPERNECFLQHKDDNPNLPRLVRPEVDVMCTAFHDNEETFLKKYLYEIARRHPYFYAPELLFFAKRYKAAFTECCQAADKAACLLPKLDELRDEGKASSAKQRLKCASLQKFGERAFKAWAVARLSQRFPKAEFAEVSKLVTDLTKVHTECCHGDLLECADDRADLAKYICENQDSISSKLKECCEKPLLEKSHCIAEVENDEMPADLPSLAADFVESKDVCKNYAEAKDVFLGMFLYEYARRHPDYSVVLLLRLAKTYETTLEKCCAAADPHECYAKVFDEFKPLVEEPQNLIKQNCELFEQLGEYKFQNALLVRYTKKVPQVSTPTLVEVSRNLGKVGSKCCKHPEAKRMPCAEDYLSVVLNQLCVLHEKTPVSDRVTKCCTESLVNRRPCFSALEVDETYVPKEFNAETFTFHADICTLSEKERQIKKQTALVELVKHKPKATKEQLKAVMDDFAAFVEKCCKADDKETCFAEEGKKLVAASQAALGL
# Assay Method Text: Differential scanning fluorimetry
# Assay Context: PFAS; 0.125 mM HSA; single-site ligand binding model; mean ± SD
Mark condition met for Kd under 1000 µM, condition not met if at or over.

Record excerpt, results attached:
Molecule	Study Target	Qualitative Label
O=S(=O)(O)CCC(F)(F)C(F)(F)C(F)(F)C(F)(F)C(F)(F)C(F)(F)F [6:2 FTSA, 2H,2H,3H,3H-perfluorooctane-1-sulfonate]	human serum albumin (HSA) (Homo sapiens, UniProt P02768)	condition met
O=S(=O)(O)CCC(F)(F)C(F)(F)C(F)(F)C(F)(F)F	human serum albumin (HSA) (Homo sapiens, UniProt P02768)	condition not met

Next up:
Kd strictly < 1000 µM for this molecule? O=C(O)C(F)(F)C(F)(F)C(F)(F)C(F)(F)C(F)(F)C(F)(F)C(F)(F)C(F)(F)F condition met

###

# Study Target: human serum albumin (HSA) (Homo sapiens, UniProt P02768)
# Assay Method Text: Differential scanning fluorimetry
# Assay Context: EC50, PFAS; 0.125 mM HSA; 4-parameter variable slope model; mean ± SD
Provide the reported EC50 of each item.
Give bare numbers, in µM.

Compound	Unit Annotation	Measured
FC(OC(F)(F)C(F)(F)C(F)(F)F)C(F)(F)F (centres unmarked) [E1]	µM	2340

Shift focus to the following entry.
Look at this compound and give its reported EC50. O=C(O)C(F)(F)C(F)(F)C(F)(F)C(F)(F)C(F)(F)C(F)(F)C(F)(F)F 840

###

For each entry below, report its Kd value.
# Study Target: human serum albumin (HSA) (Homo sapiens, UniProt P02768)
# Assay Method Text: Differential scanning fluorimetry
# Assay Context: PFAS; 0.125 mM HSA; single-site ligand binding model; mean ± SD
Give bare numbers, in mM.

Compound	Attribute Measured	Unit Annotation	Measured
O=C(O)CCC(F)(F)C(F)(F)C(F)(F)C(F)(F)C(F)(F)C(F)(F)C(F)(F)C(F)(F)F [8:3 FTCA, 2,H,2H,3H,3H-perfluoroundecanoate]	Kd	mM	0.97

Look at each compound and report its Kd.
1. O=C(O)C(F)(F)C(F)(F)C(F)(F)C(F)(F)C(F)(F)C(F)(F)C(F)(F)C(F)(F)C(F)(F)C(F)(F)F
2. O=C(O)C(F)(F)C(F)(F)C(F)(F)C(F)(F)F

1: 1.36; 2: 2.1

###

Exercise: for every item that follows, state its recorded pEC50.
# Study Target: human serum albumin (HSA) (Homo sapiens, UniProt P02768)
# Assay Method Text: Differential scanning fluorimetry
# Assay Context: PFAS; 0.125 mM HSA; 4-parameter variable slope model; mean ± SD
Answers are plain numbers, as −log10 of the molar value.

// worked examples, pEC50 included
Molecule	pEC50
O=C(O)CCC(F)(F)C(F)(F)C(F)(F)C(F)(F)C(F)(F)F	2.83
O=C(O)CCC(F)(F)C(F)(F)C(F)(F)C(F)(F)C(F)(F)C(F)(F)C(F)(F)C(F)(F)F [8:3 FTCA, 2,H,2H,3H,3H-perfluoroundecanoate]	2.94
O=S(=O)(O)C(F)(F)C(F)(F)OC(F)(C(F)(F)F)C(F)(F)OC(F)C(F)(F)F (stereo not drawn)	2.72
O=C(O)C(F)(F)C(F)(F)C(F)(F)C(F)(F)C(F)(F)C(F)(F)C(F)(F)C(F)(F)C(F)(F)F	2.95
O=S(=O)(O)CCC(F)(F)C(F)(F)C(F)(F)C(F)(F)F	2.84

Turning now to a further record.
Return reported pEC50; argument: O=C(O)C(F)(F)C(F)(F)C(F)(F)C(F)(F)C(F)(F)C(F)(F)C(F)(F)C(F)(F)F 3.22

###

# Study Target: human serum albumin (HSA) (Homo sapiens, UniProt P02768)
# Assay Method Text: Differential scanning fluorimetry
# Assay Context: PFAS; 0.125 mM HSA; single-site ligand binding model; mean ± SD
pKd: −log10 of the molar value.
Threshold rule: pKd greater than or equal to 3 is true; below that, false.

Compound	Study Target	Qualitative Label
O=C(O)CCC(F)(F)C(F)(F)C(F)(F)C(F)(F)C(F)(F)F	human serum albumin (HSA) (Homo sapiens, UniProt P02768)	true

Identify whether the reported pKd of the following compound is 3 or greater: O=C(O)C(F)(OC(F)(F)C(F)(F)C(F)(F)F)C(F)(F)F (centres unmarked) [HFPO-DA, hexafluoropropylene oxide dimer acid] false

Another compound to check: O=S(=O)(O)C(F)(F)C(F)(F)C(F)(F)C(F)(F)F false
